# Test system: CAKI-1 renal
# ASSAY METHOD TEXT: NCI-60 one-dose screen, 48 h
# PROTOCOL CONDITIONS: 10 µM unless noted
About 83,000 compounds went through this panel and 20% of them were active in at least one assay; those are over-represented in the sample as a whole. Calls of active or inactive are those of the source. The calls were made as follows: active = growth percent below 10; inactive = the rest.
One label from this list, please: true (1) for active, false (0) for inactive

Query: Hi, sorry to bother you, what did the test record for COc1cc(C2C=C(C)N=C3SC(C)=NN32)cc(OC)c1OC (configuration not stated) ?
Response: false (0)

Query: Hi, sorry to bother you, what did the test record for COc1cc2c(cc1OC)C1(C)N(CC2)C(=O)OC1(C)C (configuration not stated) ?
Response: false (0)

Query: Hi, sorry to bother you, what did the test record for CCCCn1c(=O)c(C2CNC(=O)c3ccccc3N2)cc2ccccc21 (configuration not stated) ?
Response: false (0)

Query: Hi, sorry to bother you, what did the test record for COc1ccc(-c2nc(-c3ccccc3)c(-c3ccccc3)n2C2CC2)cc1OC1CCCCC1 ?
Response: false (0)

Query: Hi, sorry to bother you, what did the test record for O=C(COc1ccccc1)N1N=C(c2ccc(Cl)cc2)CC1c1c[nH]c2ccccc12 (configuration not stated) ?
Response: false (0)

Query: Hi, sorry to bother you, what did the test record for COC(=O)CCCCCCN=Cc1c(O)c(O)c(C(C)C)c2cc(C)c(-c3c(C)cc4c(C(C)C)c(O)c(O)c(C=NCCCCCCC(=O)OC)c4c3O)c(O)c12 ?
Response: false (0)

Query: Hi, sorry to bother you, what did the test record for CC/C=C\C[C@H]1C/C=C2/C(=O)C(Cl)=C[C@@H]2C/C=C\CCCC(=O)O1 ?
Response: true (1)

Query: Hi, sorry to bother you, what did the test record for O=c1c2cccc3c(Nc4ccc(F)cc4)ccc(c32)c2nc3ccccc3n12 ?
Response: false (0)

Query: Hi, sorry to bother you, what did the test record for C=CCOc1cccc(/C=C/C(=O)c2sc(Nc3cccnc3)nc2C)c1 ?
Response: false (0)

Query: Hi, sorry to bother you, what did the test record for COc1cc(OC)c(C(=O)/C=C/c2cccc(C#N)c2)c(OC)c1 ?
Response: false (0)

Query: Hi, sorry to bother you, what did the test record for CC(=O)c1cc(C(=O)c2ccc3c(c2)Sc2ccccc2N3)c2cc(C)ccn12 ?
Response: false (0)

Query: Hi, sorry to bother you, what did the test record for COc1ccc2c(c1)C(C)Cc1c(N(C)C)ncnc1N2C (configuration not stated) ?
Response: false (0)

Query: Hi, sorry to bother you, what did the test record for O=c1[nH]c(-c2cn(-c3ccc(Cl)cc3)nn2)nc2ccccc12 ?
Response: false (0)

Query: Hi, sorry to bother you, what did the test record for CN(C)C/C=C/C(=O)Nc1cc2c(Nc3cccc(Cl)c3F)ncnc2cc1OCCOC(F)F ?
Response: false (0)

Query: Hi, sorry to bother you, what did the test record for Cc1cc(NC(=O)COC(=O)c2sc3cc(F)ccc3c2Cl)no1 ?
Response: false (0)

Query: Hi, sorry to bother you, what did the test record for CCc1c(C(=O)Nc2ccc3ccccc3c2)[nH]c(C)c1C(C)=O ?
Response: false (0)

Query: Hi, sorry to bother you, what did the test record for CC1(C)OC2COC3(C(=O)O)OC(C)(C)OC3C2O1 (configuration not stated) ?
Response: false (0)

Query: Hi, sorry to bother you, what did the test record for Cn1c(C(N)=O)cc2c1-c1nc(NC3CCCCC3)ncc1CCC2 ?
Response: false (0)

Query: Hi, sorry to bother you, what did the test record for Cc1ccc(C(=O)c2sc3nc4c(cc3c2N)CCCC4)c(C)c1 ?
Response: true (1)

Query: Hi, sorry to bother you, what did the test record for NC(CC(N)C(=O)O)C(=O)O (configuration not stated) ?
Response: false (0)

Query: Hi, sorry to bother you, what did the test record for CCC(=O)Nc1ccccc1C#C/C=C\C#Cc1ccccc1SC ?
Response: false (0)

Query: Hi, sorry to bother you, what did the test record for Cc1nc(Nc2cccnc2)sc1C(=O)/C=C/c1ccc(Cl)cc1 ?
Response: false (0)

###

# System: SF-539 CNS
# ASSAY METHOD TEXT: NCI-60 one-dose screen, 48 h
# PROTOCOL CONDITIONS: 10 µM unless noted
The panel holds about 83,000 compounds, 20% with a hit somewhere; the sample as a whole holds those more often. Calls of active or inactive are those of the source. Rule for the calls: active = growth percent below 10; inactive = the rest.
One label from this list, please: active, inactive

Query: Hi, sorry to bother you, what did the test record for C=C1C(=O)O[C@H]2[C@H]1CC/C(COC(=O)NCc1ccc(OC)cc1)=C\CC[C@@]1(C)O[C@@H]21 ?
Response: inactive

Query: Hi, sorry to bother you, what did the test record for Cc1sc2nc(CSc3nnc(-c4ccco4)o3)[nH]c(=O)c2c1C ?
Response: inactive

Query: Hi, sorry to bother you, what did the test record for COC(=O)c1cc(-c2cccs2)c(C#N)c(N)c1C#N ?
Response: inactive

Query: Hi, sorry to bother you, what did the test record for COc1ccc2c(c1)NC(=O)CN2c1nc(NC2CC2)nc2ccccc12 ?
Response: active

Query: Hi, sorry to bother you, what did the test record for O=c1[nH]c(-c2cn(-c3ccc(Cl)cc3)nn2)nc2ccccc12 ?
Response: inactive

Query: Hi, sorry to bother you, what did the test record for COc1ccc(-c2nc3sccn3c2-c2ccnc(NCCCNS(=O)(=O)c3ccc(F)cc3)n2)cc1 ?
Response: inactive

Query: Hi, sorry to bother you, what did the test record for Cc1cc(C)c(S(=O)(=O)N2CCN(c3cc4c(cc3F)c(=O)c(C(=O)O)cn4C3CC3)CC2)c(C)c1 ?
Response: inactive

Query: Hi, sorry to bother you, what did the test record for COC(=O)c1ccc(C)cc1 ?
Response: inactive

Query: Hi, sorry to bother you, what did the test record for COc1cc(Br)c(OC)cc1Br ?
Response: inactive

Query: Hi, sorry to bother you, what did the test record for O=C1CCCCN1CCCCC#Cc1ccccc1C#Cc1ccc([N+](=O)[O-])cc1 ?
Response: inactive

Query: Hi, sorry to bother you, what did the test record for COC1=CC(c2ccc[nH]2)=N/C1=C\c1[nH]c(C)c(CCCn2cc(CCCCCCCCC[C@@H]3Cc4cc(O)ccc4C4CC[C@]5(C)[C@@H](O)CC[C@H]5C43)nn2)c1C (some centres not stated) ?
Response: inactive

Query: Hi, sorry to bother you, what did the test record for Cc1ccc(C2=NN(c3ccc(S(N)(=O)=O)cc3)C(c3cn(-c4ccccc4)nc3-c3ccccc3)C2)cc1 (configuration not stated) ?
Response: inactive

Query: Hi, sorry to bother you, what did the test record for C=C1C(=O)O[C@H]2[C@H]1CC/C(COC(=O)NCc1cc(OC)c(OC)c(OC)c1)=C\CC[C@@]1(C)O[C@@H]21 ?
Response: inactive

Query: Hi, sorry to bother you, what did the test record for CCCn1c(=S)sc2c(Cl)nc(C)nc21 ?
Response: inactive

Query: Hi, sorry to bother you, what did the test record for Cc1ccc2nc(SCn3nnc4ccccc4c3=O)[nH]c2c1 ?
Response: inactive

Query: Hi, sorry to bother you, what did the test record for O=C1NC(Cc2c[nH]c3ccccc23)C(=O)N1Cc1ccc(Cl)cc1 (configuration not stated) ?
Response: inactive

Query: Hi, sorry to bother you, what did the test record for Clc1cccc(Cl)c1Cn1c(-c2cncs2)nc2ccccc21 ?
Response: inactive

Query: Hi, sorry to bother you, what did the test record for COc1ccc(-c2nc3sccn3c2-c2ccnc(NCCNS(=O)(=O)c3ccc(C(F)(F)F)cc3)n2)cc1 ?
Response: active

Query: Hi, sorry to bother you, what did the test record for Nc1c(C(=O)c2ccc(F)cc2)sc2nc3c(cc12)CCCC3 ?
Response: inactive

Query: Hi, sorry to bother you, what did the test record for CCN(Cc1ccccc1)c1ccc(SC#N)cc1 ?
Response: inactive

Query: Hi, sorry to bother you, what did the test record for CC(C)(C)c1cn2cccc(C(=O)N3CCN(CC(=O)Nc4ccc(Cl)cc4C(=O)c4ccccc4Cl)CC3)c2n1 ?
Response: inactive

Query: Hi, sorry to bother you, what did the test record for CSc1nc(-c2cc3ccccc3o2)cc(-c2ccc(Cl)cc2)c1C#N ?
Response: active

Query: Hi, sorry to bother you, what did the test record for Nc1nc(-c2cc3ccccc3o2)cc(=O)c(=O)[nH]1 ?
Response: inactive

Query: Hi, sorry to bother you, what did the test record for Nc1c(C(=O)Nc2cccc(C(F)(F)F)c2)sc2nc3c(cc12)CCCCCC3 ?
Response: active

Query: Hi, sorry to bother you, what did the test record for CC(=O)Nc1nc(C(=O)N2N=C(C)/C(=C/c3ccc(Cl)cc3)C2=O)cs1 ?
Response: inactive

Query: Hi, sorry to bother you, what did the test record for COc1cc(C(=O)N2CCN(C(=O)c3ccco3)CC2)c(N)cc1OCc1ccccc1 ?
Response: inactive

Query: Hi, sorry to bother you, what did the test record for COC(=O)c1ccc2nc(-c3cc4ccccc4n3C)n(CCCCOc3cc4c(cc3OC)C(=O)N3CCC[C@H]3C=N4)c2c1 ?
Response: active

Query: Hi, sorry to bother you, what did the test record for O=S(=O)(NCCCNc1cc(-c2cn(-c3ccccc3)nc2-c2cccc(O)c2)ccn1)c1ccc(C(F)(F)F)cc1 ?
Response: inactive

Query: Hi, sorry to bother you, what did the test record for O=C(c1ccccc1)C(Cl)C(Cl)c1ccccc1 (configuration not stated) ?
Response: inactive

Query: Hi, sorry to bother you, what did the test record for O=[N+]([O-])c1cc(S(=O)(=O)OCC2CO2)ccc1Cl (configuration not stated) ?
Response: inactive

Query: Hi, sorry to bother you, what did the test record for Cc1ccc(S(=O)(=O)OC2COCOC2C(OS(=O)(=O)c2ccc(C)cc2)C2OCOCC2OS(=O)(=O)c2ccc(C)cc2)cc1 (configuration not stated) ?
Response: inactive

Query: Hi, sorry to bother you, what did the test record for Nc1nc(Cl)c2c(ncn2Cc2ccc(CCl)cc2)n1 ?
Response: inactive

Query: Hi, sorry to bother you, what did the test record for CCCCn1c(=O)c(C2CNC(=O)c3ccccc3N2)cc2ccccc21 (configuration not stated) ?
Response: inactive

Query: Hi, sorry to bother you, what did the test record for O=C(C[N+](=O)[O-])c1ccc(Cl)cc1 ?
Response: inactive

Query: Hi, sorry to bother you, what did the test record for CC(=O)OC[Si](C)(C)c1ccccc1 ?
Response: inactive

Query: Hi, sorry to bother you, what did the test record for CN(C)c1nc(N)c(N=O)c(N)n1 ?
Response: inactive

Query: Hi, sorry to bother you, what did the test record for Cc1nc2scc(-c3ccccc3)n2c(=O)c1CCO ?
Response: inactive

Query: Hi, sorry to bother you, what did the test record for O=C1NCC(c2cc3ccccc3[nH]c2=O)Nc2ccccc21 (configuration not stated) ?
Response: inactive

Query: Hi, sorry to bother you, what did the test record for CCCCNC(=O)NS(=O)(=O)c1ccc(N2N=C(c3ccc(C)cc3C)CC2c2ccc(OC)cc2)cc1 (configuration not stated) ?
Response: inactive

Query: Hi, sorry to bother you, what did the test record for C/C(=N\NC(=O)CC#N)c1cc2cc(Cl)ccc2o1 ?
Response: inactive

Query: Hi, sorry to bother you, what did the test record for COc1cc(OC)c(C(=O)/C=C/c2cccc(C#N)c2)c(OC)c1 ?
Response: active

Query: Hi, sorry to bother you, what did the test record for COC(=O)CC/C(C)=N\Nc1ccc([N+](=O)[O-])cc1 ?
Response: inactive
